Listed compounds paired with reported T. gondii β-gal Growth (%)
# Tested on: T. gondii β-gal tachyzoites
# TEST: Primary screening: T. gondii β-gal proliferation in HFF monolayers at 0.1 and 1 µM (CPRG readout)
# Type: cell-based, Toxoplasma gondii
# EXPERIMENTAL CONTEXT: 0.1 µM, tachyzoites cultured in HFF, 72 h, relative to DMSO control
Enter the number, and then the unit.

Consider the worked cases shown below.
Cc1ccc(C(C)C)cc1.Cc1ccc(C(C)C)cc1.Cc1cn(Cc2cn(-c3ccc([S]4[Ru]5[S](Cc6ccc(C(C)(C)C)cc6)[Ru+]4[S]5Cc4ccc(C(C)(C)C)cc4)cc3)nn2)c(=O)[nH]c1=O.[Cl-] [Compound 24]    56 ± 15%
CC(C)(C)c1ccc(C[S]2[Ru]3[S](Cc4ccc(C(C)(C)C)cc4)[Ru+]2[S]3c2ccccc2Cn2cc(-c3ccccc3)nn2)cc1.Cc1ccc(C(C)C)cc1.Cc1ccc(C(C)C)cc1.[Cl-] [Compound 34]    7 ± 0%

Request: Quick check: T. gondii β-gal Growth (%) on T. gondii β-gal tachyzoites, item C#Cc1ccc(C(=O)Nc2ccc([S+]3[Ru-]4[S+](Cc5ccc(C(C)(C)C)cc5)[Ru-]3[S+]4Cc3ccc(C(C)(C)C)cc3)cc2)cc1.Cc1ccc(C(C)C)cc1.Cc1ccc(C(C)C)cc1.[Cl-] (stereo not drawn) [Compound 6] ?
Response: 112 ± 1%

====

Listed compounds paired with reported viability at 72 h, 1 µM
# TEST: Cytotoxicity in non-infected HFF by alamarBlue assay
# Type: cell-based, human
# EXPERIMENTAL CONTEXT: human; 1 µM, non-infected HFF, 72 h, relative to DMSO control, triplicate
Please state the figure in %; there is no need to write the unit.

[N-]=[N+]=NCc1cc(=O)[nH]c(=O)[nH]1    102
C#CCn1cnc2c(N)ncnc21.C#CCn1cnc2c(N)ncnc21    89
[N-]=[N+]=NCCn1cnc2c(N)ncnc21    103
C#CCn1cc(C)c(=O)[nH]c1=O.C#CCn1cc(C)c(=O)[nH]c1=O    103
C#CCn1ccc(=O)[nH]c1=O.C#CCn1ccc(=O)[nH]c1=O    96

Then this compound:
Request: Please give the measured viability at 72 h, 1 µM for this compound: C#CCn1ccc(N)nc1=O.C#CCn1ccc(N)nc1=O
Response: 93

====

# System: human foreskin fibroblasts (HFF)
# TEST: Cytotoxicity in non-infected HFF by alamarBlue assay
# Format: cell-based
# EXPERIMENTAL CONTEXT: 1 µM, non-infected HFF, 72 h, relative to DMSO control, triplicate
ASSAY ENDPOINT: HFF Viability (%)
Please state the figure in %; there is no need to write the unit.

CC(C)(C)c1ccc(C[S]2[Ru]3[S](Cc4ccc(C(C)(C)C)cc4)[Ru+]2[S]3c2ccc(-n3cc(-c4ccccn4)nn3)cc2)cc1.Cc1ccc(C(C)C)cc1.Cc1ccc(C(C)C)cc1.[Cl-]    90

Request: Please give the measured HFF Viability (%) for this compound: CNc1cn(CCn2cnc3c(N)ncnc32)nn1
Response: 71

Request: Please give the measured HFF Viability (%) for this compound: CC(C)(C)c1ccc(C[S]2[Ru]3[S](Cc4ccc(C(C)(C)C)cc4)[Ru+]2[S]3c2ccc(-n3cc(-c4ccccc4)nn3)cc2)cc1.Cc1ccc(C(C)C)cc1.Cc1ccc(C(C)C)cc1.[Cl-]
Response: 71

All figures here come from paper PMC9738179.
